target: c-Src (h) (Homo sapiens); construct: purchased Eurofins Pharma Discovery Services UK Ltd (contract assay service); assay: c-Src kinase activity assay, cell free; assay type: biochemical
Sequence (P12931 whole entry): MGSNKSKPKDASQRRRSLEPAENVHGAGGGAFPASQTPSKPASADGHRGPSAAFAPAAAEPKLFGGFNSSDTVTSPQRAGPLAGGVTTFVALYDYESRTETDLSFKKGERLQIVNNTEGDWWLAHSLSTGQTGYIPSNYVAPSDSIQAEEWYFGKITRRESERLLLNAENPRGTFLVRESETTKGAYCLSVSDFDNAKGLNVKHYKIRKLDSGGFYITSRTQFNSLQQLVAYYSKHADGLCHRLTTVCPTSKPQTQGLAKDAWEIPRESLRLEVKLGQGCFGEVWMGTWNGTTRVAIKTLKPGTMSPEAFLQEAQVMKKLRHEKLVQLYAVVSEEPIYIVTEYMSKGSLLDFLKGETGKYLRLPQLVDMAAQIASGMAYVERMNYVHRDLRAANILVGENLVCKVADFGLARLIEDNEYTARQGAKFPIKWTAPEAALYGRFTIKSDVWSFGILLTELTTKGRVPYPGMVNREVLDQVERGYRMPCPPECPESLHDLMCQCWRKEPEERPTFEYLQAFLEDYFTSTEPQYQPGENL
pIC50: −log10 of the molar value.

# query.smiles, pIC50
measured = [
    ("N=C(N)NCCC[C@@H](N)C(=O)N[C@H](CCCNC(=N)N)C(=O)N[C@H](CCCNC(=N)N)C(=O)N[C@H](CCCNC(=N)N)C(=O)N[C@H](CCCNC(=N)N)C(=O)N[C@H](CCCNC(=N)N)C(=O)N[C@H](CCCNC(=N)N)C(=O)N[C@H](CCCNC(=N)N)C(=O)N[C@H](CCCNC(=N)N)C(=O)N[C@H](CCCNC(=N)N)C(=O)N[C@H](CCCNC(=N)N)C(=O)N[C@H](CCCNC(=N)N)C(=O)N[C@H](CCCNC(=N)N)C(=O)N[C@H](CCCNC(=N)N)C(N)=O", 8.22),
    ("N=C(N)NCCC[C@H](NC(=O)[C@H](CCCNC(=N)N)NC(=O)[C@H](CCCNC(=N)N)NC(=O)[C@H](CCCNC(=N)N)NC(=O)[C@H](CCCNC(=N)N)NC(=O)[C@H](CCCNC(=N)N)NC(=O)[C@H](CCCNC(=N)N)NC(=O)[C@H](CCCNC(=N)N)NC(=O)[C@H](CCCNC(=N)N)NC(=O)[C@H](CCCNC(=N)N)NC(=O)[C@H](CCCNC(=N)N)NC(=O)[C@@H](N)CCCNC(=N)N)C(N)=O", 8.22),
]

----------
Target: PKG1α (h) (Homo sapiens, UniProt Q13976)
Construct: purchased Eurofins Pharma Discovery Services UK Ltd (contract assay service)
Sequence (Q13976 1-671): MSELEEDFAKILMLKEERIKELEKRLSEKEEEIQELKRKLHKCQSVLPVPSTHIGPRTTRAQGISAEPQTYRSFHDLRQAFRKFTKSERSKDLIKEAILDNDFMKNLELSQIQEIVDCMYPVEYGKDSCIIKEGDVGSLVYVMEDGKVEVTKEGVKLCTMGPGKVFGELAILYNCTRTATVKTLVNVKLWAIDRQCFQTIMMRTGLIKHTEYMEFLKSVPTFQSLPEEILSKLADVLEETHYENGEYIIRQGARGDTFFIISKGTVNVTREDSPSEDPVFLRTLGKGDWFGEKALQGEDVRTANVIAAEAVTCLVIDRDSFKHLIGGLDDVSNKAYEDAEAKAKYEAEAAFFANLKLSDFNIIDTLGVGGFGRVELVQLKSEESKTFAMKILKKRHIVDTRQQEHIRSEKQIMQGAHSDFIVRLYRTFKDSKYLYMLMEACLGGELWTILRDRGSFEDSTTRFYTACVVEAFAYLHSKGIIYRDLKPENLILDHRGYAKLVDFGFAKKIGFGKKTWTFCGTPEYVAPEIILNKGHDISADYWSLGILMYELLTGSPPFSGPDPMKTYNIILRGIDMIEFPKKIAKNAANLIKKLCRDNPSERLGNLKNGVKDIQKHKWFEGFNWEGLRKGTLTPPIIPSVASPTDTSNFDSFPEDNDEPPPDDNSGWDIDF
Experiment: PKG1α kinase activity assay, cell free
Assay type: biochemical
IC50 values, listed per item

# compound, IC50, nM
rows = [
    ("N=C(N)NCCC[C@H](NC(=O)[C@H](CCCNC(=N)N)NC(=O)[C@H](CCCNC(=N)N)NC(=O)[C@H](CCCNC(=N)N)NC(=O)[C@H](CCCNC(=N)N)NC(=O)[C@H](CCCNC(=N)N)NC(=O)[C@H](CCCNC(=N)N)NC(=O)[C@H](CCCNC(=N)N)NC(=O)[C@H](CCCNC(=N)N)NC(=O)[C@H](CCCNC(=N)N)NC(=O)[C@H](CCCNC(=N)N)NC(=O)[C@H](CCCNC(=N)N)NC(=O)[C@H](CCCNC(=N)N)NC(=O)[C@@H](N)CCCNC(=N)N)C(=O)O [IK0140H, RRRRRRRRRRRRRR]", 7),
    ("N=C(N)NCCC[C@H](NC(=O)[C@H](CCCNC(=N)N)NC(=O)[C@H](CCCNC(=N)N)NC(=O)[C@H](CCCNC(=N)N)NC(=O)[C@H](CCCNC(=N)N)NC(=O)[C@H](CCCNC(=N)N)NC(=O)[C@H](CCCNC(=N)N)NC(=O)[C@H](CCCNC(=N)N)NC(=O)[C@H](CCCNC(=N)N)NC(=O)[C@H](CCCNC(=N)N)NC(=O)[C@H](CCCNC(=N)N)NC(=O)[C@H](CCCNC(=N)N)NC(=O)[C@H](CCCNC(=N)N)NC(=O)[C@@H](N)CCCNC(=N)N)C(N)=O", 6.7),
]
